Values compiled from the supplement of paper PMC6555819.

Each item that follows carries a reported PBM binding z-score.
Tested on: VDR:RXRa (NR concentration 270 nM, RXRa partner concentration 90 nM)
Assay: PBM binding z-score (relative to random genomic background probes); higher = stronger binding; sequences stand for … in GC…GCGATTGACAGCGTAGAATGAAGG
READOUT TYPE: PBM binding z-score

1. CAAACTAGGACACGAAAGGTCAAAGTCGAATGAC
4.78
2. CTGACTGGGGCAGAAAGGTTACCATACCATCCGG
1.36
3. TTACCAAGGTGAAAGGTCGTTGATGCACGCCTTG
3.14
4. ATCGGAAGGTCGTGAGGTGAGTATACAGAAAGGC
2.1
5. CAAACTAGGTCAAGAGGTCTAAGTCCGCTTCCCG
3.91
6. AGTCAAGGTTCACTAGGTAACGTAAGATTCAGCT
3.27
7. CGAACTAGGTCATTGATAGGACAGTGAATAGTAA
2.27
8. TCTAGGAGGACACGAAAGGTCAGAGCTCGACATC
3.42
9. CAGCCTAGGTCAGGGCCAGTATGGGAGGAACGTT
-0.0336
10. AGAACGAGGGCACGCTGAGTGGATAGCAGAGTAG
0.617
11. TCAGACAGGTGCAGGTAACTCAGGTACGCAGTCG
0.362
12. CGAACTAGGTCATTTACAGGACAGTGAATAGTAA
2.14

---

System: PPARa:RXRa (NR concentration 270 nM, RXRa partner concentration 90 nM)
Test: PBM binding z-score (relative to random genomic background probes); higher = stronger binding; sequences stand for … in GC…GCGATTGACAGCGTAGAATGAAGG
READOUT TYPE: PBM binding z-score

1. TCTAGTTGGTCAAAGCTCACACACTCGAAATGCG
1.58
2. TGTTGTAGATCAACAGGAGGTTAAGAAAGATCGA
0.963
3. TCTGCTAGGTCACTTGGTCAGCTAACGAGCTGCC
2.97
4. TAGCCTAGGTCATGGGCCAGAATACCACGCGAAC
4.2
5. CGTTCAAGGTCAATGCTAGGTCAGTGAAAGCATT
5.27
6. CGTCCAAGGTCATAGGAGGTCAGTAAAGACAGAT
5.96

---

Test system: RARa homodimer (NR concentration 270 nM)
Test: PBM binding z-score (relative to random genomic background probes); higher = stronger binding; sequences stand for … in GC…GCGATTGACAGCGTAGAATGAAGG
Output 1 for PBM binding z-score not less than 0.03; output -1 otherwise.

1. AATACACGGTCACTAGGCCAGAGTAGGTACGAAT
1
2. TATACAGGGTCAAAGGCCAGAGTACGAATGTCGA
1
3. GCTATTAGTTGAAAGGCCAACCGAATGATTCTCG
1
4. CAAACTAGGTCAAAGGTGAAAGTCGAGCCAACCA
1
5. CCTATTAGTTGACCATAAGGGCAACAGAAGCTCG
1
6. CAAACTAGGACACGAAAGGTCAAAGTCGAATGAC
1
7. CAACCAAGGTGAACAAGGTCGTTGATTACTATTC
1
8. CCGACTGGGGCAGAAAGGGTACCATACCATCCGG
-1
9. CGTACAAGGTCATAGGAGGTCAGTGAAGACAGAT
1
10. TCGAGTAGGTTAGGGGCATTGAGAATGGCGTCGA
-1
11. AGAACGAGGGCACGCTGAGTTGATAGCTGAGTAG
-1
12. CCTACTAGGCCAAAGGTCATTGATTCCAATGCTC
1
13. CGAACTAGGTCATTGTCAGGACAGTGAATAGTAA
1
14. CGTAGCAGGCCAATCTGGGTCACTCAAGGCTTGA
-1
15. GATACCGGGTCAGCTAGAGGCCAGAGTATGGAAA
-1
16. CCTTACGGCTCAAGGTTATAGCACGGGTGGTACG
1
17. TCGAGTAGGTTACCCATGGGGCATTCAGCTTTCT
-1
18. AGCTCTAGGTAAGACTCAGTTCAGTGAAGAACGC
-1
19. GCTTGTAGATCAAGATTAAGAAAGACTAAGCTAA
-1
20. TTTCCAAGGTGAAGGTCGTTGATCCCTCTGTAGA
-1
21. TGAATGAGGTTATAAGAACAGGGAACGTTGCAAA
-1
22. TAGCCTAGGTCATTCACGGGCCAGTATAGAAAGC
-1
23. ATCTCCAGGTAAAAGTTCAGTGAATCCCGAGGAT
1
24. ACAGACAGGTGAGTGAAGGTAACACAGCTGGACG
1
25. GGAACGAGGGCAAGTTGAAAGCAGAGTTTGATGG
-1
26. CGTCCAAGGTCATAGGAGGTCCGTGAAGACAGAT
1
